The measured values listed here are drawn from patent US20210079109A1.

Readings of pEC50 for the listed binders
- assay.target: T1, human CD63 (human, UniProt P08962 2-238)
- T1 construct: stably transfected in NIH3T3/hCD63; The cell line is named under assay; also called hCD63
- T1 sequence: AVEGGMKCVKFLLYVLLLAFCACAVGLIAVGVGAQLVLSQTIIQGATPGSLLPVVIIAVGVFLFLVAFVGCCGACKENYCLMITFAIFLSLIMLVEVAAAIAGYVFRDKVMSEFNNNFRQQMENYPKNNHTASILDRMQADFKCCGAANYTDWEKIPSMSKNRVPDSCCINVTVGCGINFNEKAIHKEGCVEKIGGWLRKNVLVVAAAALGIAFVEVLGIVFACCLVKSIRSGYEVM
- assay.overview: ECL, U87MG cells
pEC50: −log10 of the molar value.
experimental.readout: pEC50

1. H2M13022N (antibody, V domains shown, also called H2bM13022N) VH: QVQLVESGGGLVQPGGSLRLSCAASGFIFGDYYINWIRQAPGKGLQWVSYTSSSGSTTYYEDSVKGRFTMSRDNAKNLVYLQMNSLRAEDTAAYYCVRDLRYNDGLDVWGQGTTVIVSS VL: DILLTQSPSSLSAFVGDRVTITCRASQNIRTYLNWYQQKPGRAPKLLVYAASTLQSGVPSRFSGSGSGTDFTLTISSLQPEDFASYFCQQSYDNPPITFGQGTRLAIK: 9.07
2. H2M12450N (antibody, V domains shown, also called H2aM12450N; mAb12450) VH: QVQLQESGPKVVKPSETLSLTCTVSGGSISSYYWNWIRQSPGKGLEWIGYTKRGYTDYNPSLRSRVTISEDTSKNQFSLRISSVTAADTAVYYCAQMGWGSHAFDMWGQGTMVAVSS VL: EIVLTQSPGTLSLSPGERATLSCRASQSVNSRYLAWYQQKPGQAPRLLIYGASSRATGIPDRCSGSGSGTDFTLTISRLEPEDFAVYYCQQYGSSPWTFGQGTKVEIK: 8.85
3. H1M12362N (antibody, V domains shown) VH: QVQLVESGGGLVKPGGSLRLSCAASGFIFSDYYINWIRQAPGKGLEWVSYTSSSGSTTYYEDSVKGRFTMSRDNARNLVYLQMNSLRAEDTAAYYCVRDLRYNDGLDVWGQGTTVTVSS VL: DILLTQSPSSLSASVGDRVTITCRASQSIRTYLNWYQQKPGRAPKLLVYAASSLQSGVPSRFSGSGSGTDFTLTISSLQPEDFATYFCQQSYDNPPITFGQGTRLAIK: 9.25
